- STUDY SYSTEM: T1, rat PrRP receptor in RC-4B/C cells (rat, UniProt Q64121 1-370)
- T1 construct: whole, on cells; endogenous receptor of RC-4B/C cells (ATCC); also called rat receptor; GPR10 receptor expressed in rat hypophyseal cells
- T1 sequence (looked up): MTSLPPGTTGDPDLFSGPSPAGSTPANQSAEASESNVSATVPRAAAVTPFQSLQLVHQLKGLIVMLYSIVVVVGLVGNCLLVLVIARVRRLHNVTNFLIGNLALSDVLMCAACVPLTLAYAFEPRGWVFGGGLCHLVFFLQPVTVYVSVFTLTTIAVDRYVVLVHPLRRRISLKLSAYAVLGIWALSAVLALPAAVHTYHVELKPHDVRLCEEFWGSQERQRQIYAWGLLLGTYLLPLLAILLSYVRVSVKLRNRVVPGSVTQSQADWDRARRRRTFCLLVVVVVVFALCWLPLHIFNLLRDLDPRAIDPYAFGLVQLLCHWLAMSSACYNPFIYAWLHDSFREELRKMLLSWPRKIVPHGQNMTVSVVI
- PROCEDURE TEXT: competition with 125I-rat PrRP31, RC-4B/C cells
pKi: −log10 of the molar value. Numbered stars: 1 amine (or outer) side, 2 acyl side, 3 side chain; on linkers, the order of the positions; unused ones are H or OH. Square brackets hold non-standard residues; d marks the D form. Side chains are listed from the residue outwards. Ends that are not written are not given here. * marks the point of attachment. Phe(F5) = N[C@@H](Cc1c(F)c(F)c(F)c(F)c1F)C(=O)O; γGlu = O=C(O)[C@H](CCC(=O)[*:2])N[*:1]; Palmitoyl = CCCCCCCCCCCCCCCC(=O)*; Myristoyl = CCCCCCCCCCCCCC(=O)*; PheCl2 = dichlorophenylalanine; PheNO2 = nitrophenylalanine; Nle = CCCC[C@H](N)C(=O)O
Everything with pKi lower than 8 is label 0; everything else, including exactly 8, is label 1.

A selection of reference data follows.
{"BINDER": "Palmitoyl-SRTHRHSMEIRTPDINPAWYASRGIRPVGRF-NH2 (also called analog no; 43; compound 43) [palm-PrRP31 (analog 43)]", "CLASS NAME": "label 1"}
{"BINDER": "Palmitoyl-SRAHQHS[Nle]ETRTPDINPAWYTGRGIRPVGR[PheCl2]-NH2 [analog no. 15]", "CLASS NAME": "label 1"}
{"BINDER": "Myristoyl-SRAHQHS[Nle]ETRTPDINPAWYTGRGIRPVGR[PheNO2]-NH2 [analog no. 17]", "CLASS NAME": "label 1"}
{"BINDER": "Myristoyl-SHQRPADTHWYPRG[Nle]FPTIGRITARNGEVSR (scrambled peptide; also called 20 scram) [analog no. 20]", "CLASS NAME": "label 0"}
{"BINDER": "QHSMETRTPDINPAWYTGRGIRPVGRF-NH2 (shortened PrRP31 analog; also called 37 short) [analog no. 37]", "CLASS NAME": "label 1"}
{"BINDER": "SRAHQHS[Nle]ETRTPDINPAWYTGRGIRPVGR[PheCl2]-NH2 [analog no. 13]", "CLASS NAME": "label 1"}

Req: Please indicate if the recorded pKi for Myristoyl-SRAHQHS[Nle]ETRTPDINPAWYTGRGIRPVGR[PheCl2]-NH2 [analog no. 14] meets or exceeds 8.
Resp: label 1

Req: Also need SRTHRHSMEIK([γGlu-Palmitoyl])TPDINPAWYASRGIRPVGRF-NH2 (also called compound 52) [analog no. 52] , thanks.
Resp: label 1

Req: Also need SRTHRHSMEIKTPDINPAWYASRGIRPVGRF ((N-palm(N-POE)) at the N-terminus; K(N-palm(N-POE)) at residue 11; C-terminal amide) [analog no. 59] , thanks.
Resp: label 1

Req: Also need Palmitoyl-SRAHQHS[Nle]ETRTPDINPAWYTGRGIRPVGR[PheNO2]-NH2 [analog no. 18] , thanks.
Resp: label 1

Req: Also need Palmitoyl-SRAHQHS[Nle]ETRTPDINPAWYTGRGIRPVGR[Phe(F5)]-NH2 [analog no. 22] , thanks.
Resp: label 1

Req: Also need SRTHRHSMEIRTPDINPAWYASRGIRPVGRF ((N-palm)γ-E at the N-terminus (palmitoyl through gamma-glutamic acid); C-terminal amide) [analog no. 54] , thanks.
Resp: label 1
